# Condition Context: in 1,4-dioxane, 328.15 K
Reported Metric: solubility (mole fraction)
Please give only the number in your answer, with no unit.

For the compound shown here, Cc1nc2n(c(=O)c1CCN1CCC(c3noc4cc(F)ccc34)CC1)CCCC2O (stereo unspecified) , give the reported solubility (mole fraction). 0.00495

----------
# Condition Context: in n-butanol, 318.15 K
Reported Metric: solubility (mole fraction)
Please give only the number in your answer, with no unit.

For the molecule shown here, Cc1nc2n(c(=O)c1CCN1CCC(c3noc4cc(F)ccc34)CC1)CCCC2O (stereo unspecified) , give the reported solubility (mole fraction). 0.000587

----------
# Condition Context: in n-butyl acetate, 303.15 K
Reported Metric: solubility (mole fraction)
Please give only the number in your answer, with no unit.

For the compound shown here, Cc1nc2n(c(=O)c1CCN1CCC(c3noc4cc(F)ccc34)CC1)CCCC2O (stereo unspecified) , give the reported solubility (mole fraction). 0.000147

----------
# Condition Context: in THF, 308.15 K
Reported Metric: solubility (mole fraction)
Please give only the number in your answer, with no unit.

For the molecule shown here, Cc1nc2n(c(=O)c1CCN1CCC(c3noc4cc(F)ccc34)CC1)CCCC2O (stereo unspecified) , give the reported solubility (mole fraction). 0.00134

----------
# Condition Context: in methyl acetate, 323.15 K
Reported Metric: solubility (mole fraction)
Please give only the number in your answer, with no unit.

For the compound shown here, Cc1nc2n(c(=O)c1CCN1CCC(c3noc4cc(F)ccc34)CC1)CCCC2O (stereo unspecified) , give the reported solubility (mole fraction). 0.000643

----------
# Condition Context: in n-pentanol, 308.15 K
Reported Metric: solubility (mole fraction)
Please give only the number in your answer, with no unit.

For the compound shown here, Cc1nc2n(c(=O)c1CCN1CCC(c3noc4cc(F)ccc34)CC1)CCCC2O (stereo unspecified) , give the reported solubility (mole fraction). 0.000364

----------
# Condition Context: in acetone, 303.15 K
Reported Metric: solubility (mole fraction)
Please give only the number in your answer, with no unit.

For the compound shown here, Cc1nc2n(c(=O)c1CCN1CCC(c3noc4cc(F)ccc34)CC1)CCCC2O (stereo unspecified) , give the reported solubility (mole fraction). 0.000171

----------
# Condition Context: in 1,4-dioxane, 298.15 K
Reported Metric: solubility (mole fraction)
Please give only the number in your answer, with no unit.

For the molecule shown here, Cc1nc2n(c(=O)c1CCN1CCC(c3noc4cc(F)ccc34)CC1)CCCC2O (stereo unspecified) , give the reported solubility (mole fraction). 0.000832

----------
# Condition Context: in n-propanol, 298.15 K
Reported Metric: solubility (mole fraction)
Please give only the number in your answer, with no unit.

For the compound shown here, Cc1nc2n(c(=O)c1CCN1CCC(c3noc4cc(F)ccc34)CC1)CCCC2O (stereo unspecified) , give the reported solubility (mole fraction). 0.000133

----------
# Condition Context: in isopropanol, 323.15 K
Reported Metric: solubility (mole fraction)
Please give only the number in your answer, with no unit.

For the molecule shown here, Cc1nc2n(c(=O)c1CCN1CCC(c3noc4cc(F)ccc34)CC1)CCCC2O (stereo unspecified) , give the reported solubility (mole fraction). 0.000363

----------
# Condition Context: in methyl acetate, 293.15 K
Reported Metric: solubility (mole fraction)
Please give only the number in your answer, with no unit.

For the molecule shown here, Cc1nc2n(c(=O)c1CCN1CCC(c3noc4cc(F)ccc34)CC1)CCCC2O (stereo unspecified) , give the reported solubility (mole fraction). 0.000101
